Where a name gives a salt, the structure may show the parent alone.
reported-property: melting point

Check out these entries, answers already filled in.
# molecule, melting point
data = [
    ("Cl.O=c1cc(-c2cc3ccccc3o2)ccn1-c1ccc2c(cnn2CCN2CCCC2)c1", "256 to 260 °C"),
    ("O=c1cc(-c2ccc3ccccc3n2)ccn1-c1ccc2c(cnn2CCN2CCCC2)c1 (as salt: hydrochloride)", "220 to 225 °C"),
    ("Cc1ccc(-c2ccn(-c3ccc4c(cnn4CCN4CCCC4)c3)c(=O)c2)cc1.Cl", "240 to 246 °C"),
]

Please find the next molecule below.
*Q* Param item = CC(C)Oc1ccc(-c2ccn(-c3ccc4c(cnn4CCN4CCCC4)c3)c(=O)c2)cc1.Cl ; retrieve measured melting point.
*A* 235 to 250 °C

###

reported-property: melting point

# query-smiles, melting point
measured = [
    ("Cl.O=c1cc(-c2ccc(Cl)cc2F)ccn1-c1ccc2c(cnn2CCN2CCCC2)c1", "215 to 230 °C"),
    ("Cl.O=c1cc(-c2ccc(-n3cccn3)cc2)ccn1-c1ccc2c(cnn2CCN2CCCC2)c1", "271 to 275 °C"),
    ("Cl.O=c1cc(-c2ccc(F)cc2)ccn1-c1ccc2c(cnn2CCN2CCCC2)c1", "115 to 120 °C"),
    ("Cc1ccc2oc(-c3ccn(-c4ccc5c(cnn5CCN5CCCC5)c4)c(=O)c3)nc2c1.Cl", "270 to 280 °C"),
    ("COc1ccc(-c2ccn(-c3ccc4c(cnn4CCN4CCCC4)c3)c(=O)c2)c(Cl)c1.Cl", "225 to 235 °C"),
]

*Q* Quick one: melting point of Cc1ccccc1-c1ccn(-c2ccc3c(cnn3CCN3CCCC3)c2)c(=O)c1.Cl ?
*A* 80 to 95 °C

*Q* Would you mind telling me what melting point value was observed for Cl.O=c1cc(-c2ccc(N3CCCCC3)cc2)ccn1-c1ccc2c(cnn2CCN2CCCC2)c1 ?
*A* 80 to 90 °C

###

experimental-system: human MCH1 receptor (Homo sapiens, UniProt Q99705)
Sequence (Q99705 whole entry): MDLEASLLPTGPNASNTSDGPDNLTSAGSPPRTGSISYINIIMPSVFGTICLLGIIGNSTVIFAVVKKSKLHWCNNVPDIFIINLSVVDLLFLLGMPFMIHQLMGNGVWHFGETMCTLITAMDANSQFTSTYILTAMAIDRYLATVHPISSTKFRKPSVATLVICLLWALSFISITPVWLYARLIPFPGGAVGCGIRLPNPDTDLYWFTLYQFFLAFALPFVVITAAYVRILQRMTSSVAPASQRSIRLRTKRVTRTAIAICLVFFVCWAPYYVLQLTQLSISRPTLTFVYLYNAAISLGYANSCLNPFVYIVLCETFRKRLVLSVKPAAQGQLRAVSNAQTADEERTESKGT
Where a name gives a salt, the structure may show the parent alone.
reported-property: Ki

*Q* Recall the recorded Ki for COc1ccc2c(c1)cc(-c1ccn(-c3ccc4c(cnn4CCN4CCCC4)c3)c(=O)c1)n2C [Example 65, dihydrochloride] with human MCH1 receptor (Homo sapiens, UniProt Q99705) and state it.
*A* ~3 µM

###

Where a name gives a salt, the structure may show the parent alone.
reported-property: melting point

Consider the worked cases shown below.
# compound, melting point
data = [
    ("CC1CC=C(c2ccn(-c3ccc4c(cnn4CCN4CCCC4)c3)c(=O)c2)CC1.Cl (centres unmarked)", "256 to 260 °C"),
    ("CN(C)C[C@@H](O)Cn1ncc2cc(-n3ccc(-c4ccc(C(F)(F)F)cc4)cc3=O)ccc21.Cl", "210 to 213 °C"),
    ("Cl.N#Cc1cc(F)ccc1-c1ccn(-c2ccc3c(cnn3CCN3CCCC3)c2)c(=O)c1", "81 to 86 °C"),
]

*Q* # melting point lookup, item O=c1cc(-c2cccc3ccccc23)ccn1-c1ccc2c(cnn2CCN2CCCC2)c1 (as salt: hydrochloride)
*A* 128 to 133 °C

*Q* I would be grateful if you could share the reported melting point for Cl.O=c1cc(-c2ccc(F)cc2F)ccn1-c1ccc2c(cnn2CCN2CCCC2)c1 .
*A* 235 to 255 °C

*Q* Need melting point, item Cl.O=c1cc(-c2ccc(Cl)cc2)ccn1-c1ccc2c(cnn2CCN2CCCC2)c1
*A* 255 to 260 °C (dec.)

*Q* Entry under review: COc1ccc(-c2ccn(-c3ccc4c(cnn4CCN4CCCC4)c3)c(=O)c2)cc1.Cl . Reported melting point?
*A* 105 to 110 °C

*Q* Field request: melting point | item: COc1ccc(-c2ccn(-c3ccc4c(cnn4CCN4CCCC4)c3)c(=O)c2)c(OC)c1.Cl
*A* 95 to 115 °C

*Q* Sample Cl.O=c1cc(-c2ccc(C(F)(F)F)cc2)ccn1-c1ccc2c(cnn2CCN2CCNCC2)c1 — what was its melting point?
*A* 222 to 224 °C (dec.)

*Q* Report melting point for Cl.O=c1cc(-c2ccc3ccccc3c2)ccn1-c1ccc2c(cnn2CCN2CCCC2)c1 please.
*A* 128 to 134 °C

###

Overview of reported melting point across a group of molecules:

# molecule, melting point
data = [
    ("Cc1cc(OCc2ccccc2)ccc1-c1ccn(-c2ccc3c(cnn3CCN3CCCC3)c2)c(=O)c1.Cl", "75 to 85 °C"),
    ("Cl.NCCCn1ncc2cc(-n3ccc(-c4ccc(C(F)(F)F)cc4)cc3=O)ccc21", "222 to 224 °C (dec.)"),
    ("Cl.O=c1cc(-c2cc3ccccc3s2)ccn1-c1ccc2c(cnn2CCN2CCCC2)c1", "260 to 264 °C"),
]

*Q* I am curious: what melting point value has been reported for Cc1ccc(-c2ccn(-c3ccc4c(cnn4CCN4CCCC4)c3)c(=O)c2)nc1.Cl ?
*A* 230 to 234 °C

*Q* # get_value(readout='melting point', item= Cl.O=c1cc(-c2ccc(OC(F)(F)F)cc2)ccn1-c1ccc2c(cnn2CCN2CCCC2)c1 )
*A* 202 to 209 °C

*Q* For the molecule Cl.N#Cc1ccc(-c2ccn(-c3ccc4c(cnn4CCN4CCCC4)c3)c(=O)c2)cc1 , what melting point is on record?
*A* 92 to 96 °C

*Q* Item under review: CN(C)CCCn1ncc2cc(-n3ccc(-c4ccc(C(F)(F)F)cc4)cc3=O)ccc21.Cl . Reported melting point?
*A* 209 to 211 °C

###

reported-property: melting point

Examples with their reported melting point follow.
# compound, melting point
measured = [
    ("Cl.O=c1cc(-c2ccc(C(F)(F)F)cc2C(F)(F)F)ccn1-c1ccc2c(cnn2CCN2CCCC2)c1", "235 to 245 °C"),
    ("COc1ccc2[nH]c(-c3ccn(-c4ccc5c(cnn5CCN5CCCC5)c4)c(=O)c3)cc2c1.Cl", "275 to 280 °C"),
    ("CN(C)CCn1ncc2cc(-n3ccc(-c4ccc(C(F)(F)F)cc4)cc3=O)ccc21.Cl", "222 to 224 °C"),
]

*Q* Give the measured melting point of Cc1cc(OC(F)(F)F)ccc1-c1ccn(-c2ccc3c(cnn3CCN3CCCC3)c2)c(=O)c1.Cl .
*A* 185 to 195 °C

*Q* Please look up its melting point: Cl.O=c1cc(-c2ccc(C(F)(F)F)cc2)ccn1-c1ccc2c(cnn2C[C@H](O)CN2CCCC2)c1
*A* 116 to 119 °C

*Q* // returns reported melting point for input Cl.Cn1ncc2cc(-c3ccn(-c4ccc5c(cnn5CCN5CCCC5)c4)c(=O)c3)ccc21
*A* 55 to 65 °C

*Q* Consider the compound shown here: Cl.O=c1cc(-c2ccc(OC(F)(F)F)cc2F)ccn1-c1ccc2c(cnn2CCN2CCCC2)c1 What is its recorded melting point?
*A* 215 to 225 °C

*Q* Returns the measured melting point for the input compound. Input: CC1CCC(c2ccn(-c3ccc4c(cnn4CCN4CCCC4)c3)c(=O)c2)CC1.Cl (stereo not drawn)
*A* 80 to 85 °C

*Q* Given CCCCOc1ccc(-c2ccn(-c3ccc4c(cnn4CCN4CCCC4)c3)c(=O)c2)c(C)c1.Cl , state its recorded melting point.
*A* 80 to 95 °C

*Q* State the recorded melting point for this entry: Cl.O=c1cc(-c2ccc(C(F)(F)F)cn2)ccn1-c1ccc2c(cnn2CCCN2CCCC2)c1
*A* 110 to 120 °C

*Q* Which melting point is listed for Cl.O=c1cc(-c2ccc(C(F)(F)F)cc2)ccn1-c1ccc2c(cnn2CCN2CCOCC2)c1 ?
*A* 248 to 250 °C (dec.)

*Q* Given the compound Cl.O=c1cc(-c2ccc3c(c2)OCO3)ccn1-c1ccc2c(cnn2CCN2CCCC2)c1 , what is its reported melting point?
*A* 75 to 85 °C

###

reported-property: melting point

# molecule, melting point
data = [
    ("Cl.O=c1cc(-c2ccc(C(F)(F)F)cc2)ccn1-c1ccc2c(cnn2CCN2CC3CC2CO3)c1 (stereo not drawn)", "148 to 150 °C"),
]

*Q* Query (molecule): Cl.O=c1cc(-c2cccc(Cl)c2)ccn1-c1ccc2c(cnn2CCN2CCCC2)c1 ; field requested: melting point
*A* 118 to 125 °C

*Q* # lookup: melting point of Cl.O=c1cc(-c2ccc(C(F)(F)F)cc2F)ccn1-c1ccc2c(cnn2CCN2CCCC2)c1
*A* 80 to 95 °C
